- Tested on: esterase E014
- TEST PROTOCOL: Initial screening of ThermoGen esterases toward esters 1-31 (pH indicator), specific activity
- Type: biochemical
- SETUP CONDITIONS: 1 mM substrate, pH 7.2, 7 vol % acetonitrile, 25° C.
- Protocol: Initial screening measures the initial rate of hydrolysis of different esters. The rate of reaction was measured by monitoring the release of protons using a pH indicator, 4-nitrophenol. In this assay, the yellow color of the phenoxide disappears as the reaction proceeds. The amount of ester hydrolyzed can be measured quantitatively, as is known in the art. […]
VALUE TYPE: Specific activity, esterase E014

{"MOLECULE": "CCOC(=O)CBr [Substrate 18]", "EXPERIMENTAL SYSTEM": "esterase E014", "Specific activity, esterase E014": "37 mmol ester hydrolyzed/min/mg protein"}
{"MOLECULE": "CCCC(=O)OCC(COC(=O)CCC)OC(=O)CCC [Substrate 29]", "EXPERIMENTAL SYSTEM": "esterase E014", "Specific activity, esterase E014": "280 mmol ester hydrolyzed/min/mg protein"}
{"MOLECULE": "CCCCCCCCCCCCCC(=O)Oc1ccc2nc3ccc(=O)cc-3oc2c1 [Substrate 6, Resorufin tetradecanoate, reference compound]", "EXPERIMENTAL SYSTEM": "esterase E014", "Specific activity, esterase E014": "170 mmol ester hydrolyzed/min/mg protein"}

Item CC(=O)Oc1ccccc1 [Substrate 26] was tested on esterase E014; the reported Specific activity, esterase E014 is 150 mmol ester hydrolyzed/min/mg protein

Item C=COC(=O)CCCCC [Substrate 4] was tested on esterase E014; the reported Specific activity, esterase E014 is 540 mmol ester hydrolyzed/min/mg protein

Item C=COC(=O)CCCCCCC [Substrate 5] was tested on esterase E014; the reported Specific activity, esterase E014 is 8.0 mmol ester hydrolyzed/min/mg protein

Item NC(Cc1ccccc1)C(=O)Oc1ccc([N+](=O)[O-])cc1.O=C(O)C(F)(F)F (racemic) [Substrate 3, reference compound] was tested on esterase E014; the reported Specific activity, esterase E014 is 180 mmol ester hydrolyzed/min/mg protein

Item CCOC(=O)C(F)(F)F [Substrate 17] was tested on esterase E014; the reported Specific activity, esterase E014 is 1.4 mmol ester hydrolyzed/min/mg protein
